# Test system: 596521-263-R-J1-PDC complex spheroids, viability % of control;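 further: spheroids exposed to drugs for 7 days before viability reading; 100% = DMSO vehicle control viability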
# testProtocol: Anticancer human tumor 596521-263-R-J1-PDC patient-derived soft tissue sarcoma cell line growth inhibition [GQUAD]
# experimentalParameters: second compound 0.1 µM; first compound 0.1 µM; stronger effect = lower value
Attribute: viability, T/C
# unit: % | format: bare number

For 596521-263-R-J1-PDC complex spheroids, viability % of control, give the measured viability, T/C of the entry CC1COCCN1c1cc(-c2ccnn2C)c2ccnc(-c3ccn[nH]3)c2n1 (stereo not given) + CN(C)c1ccc(Nc2c3ccc(NC(=O)CCN4CCCC4)cc3nc3cc(NC(=O)CCN4CCCC4)ccc23)cc1
59.2

For 596521-263-R-J1-PDC complex spheroids, viability % of control, give the measured viability, T/C of the entry C=CC(=O)N1CCN(c2nc(=O)n(-c3c(C)ccnc3C(C)C)c3nc(-c4c(O)cccc4F)c(F)cc23)C(C)C1 (stereo not given) + CN(C)c1ccc(Nc2c3ccc(NC(=O)CCN4CCCC4)cc3nc3cc(NC(=O)CCN4CCCC4)ccc23)cc1
102

For 596521-263-R-J1-PDC complex spheroids, viability % of control, give the measured viability, T/C of the entry CC(C)n1c(=O)n(C)c2cnc3cc(F)c(-c4ccc(OCCCN5CCCCC5)nc4)cc3c21 + CN(C)c1ccc(Nc2c3ccc(NC(=O)CCN4CCCC4)cc3nc3cc(NC(=O)CCN4CCCC4)ccc23)cc1
106

For 596521-263-R-J1-PDC complex spheroids, viability % of control, give the measured viability, T/C of the entry Nc1ccn(C2OC(CO)C(O)C2(F)F)c(=O)n1 (stereo not given) + Cc1[nH]c2ccc(F)cc2c1-c1nc2c3cccnc3c3ncccc3c2[nH]1
47.2

For 596521-263-R-J1-PDC complex spheroids, viability % of control, give the measured viability, T/C of the entry CC(=O)O[C@H]1C(=O)[C@@]2(C)[C@H]([C@H](OC(=O)c3ccccc3)[C@]3(O)C[C@H](OC(=O)[C@H](O)[C@@H](NC(=O)c4ccccc4)c4ccccc4)C(C)=C1C3(C)C)[C@]1(OC(C)=O)CO[C@@H]1C[C@@H]2O + CN(C)c1ccc(Nc2c3ccc(NC(=O)CCN4CCCC4)cc3nc3cc(NC(=O)CCN4CCCC4)ccc23)cc1
25.6
